Provenance of the data: patent US20140066488A1

target_desc: recombinant β-secretase (BACE 1, memapsin 2) (Homo sapiens)
Sequence (P56817 46-501): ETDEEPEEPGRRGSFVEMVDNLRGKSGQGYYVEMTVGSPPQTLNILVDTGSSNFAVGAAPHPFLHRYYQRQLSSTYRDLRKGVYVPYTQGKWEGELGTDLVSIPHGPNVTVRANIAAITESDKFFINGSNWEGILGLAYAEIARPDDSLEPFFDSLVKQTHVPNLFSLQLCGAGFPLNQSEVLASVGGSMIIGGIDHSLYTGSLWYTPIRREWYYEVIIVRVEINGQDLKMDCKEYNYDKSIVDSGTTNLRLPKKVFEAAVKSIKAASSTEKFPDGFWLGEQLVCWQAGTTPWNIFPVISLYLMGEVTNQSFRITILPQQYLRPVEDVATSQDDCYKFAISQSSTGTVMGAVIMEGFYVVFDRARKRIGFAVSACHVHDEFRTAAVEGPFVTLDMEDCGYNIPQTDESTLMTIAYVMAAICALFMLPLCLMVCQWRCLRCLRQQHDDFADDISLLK
protocol_text: BACE 1 enzyme inhibitory assay against recombinant β-secretase
stated_conditions: recombinant β-secretase

| smiles_structure | BACE 1 inhibitory activity (in words) |
| --- | --- |
| CCc1cn2c3c(cc(C(=O)N[C@H](CN[C@H](C(=O)NCC(C)C)[C@H](C)O)Cc4ccccc4)cc13)N(C)S(=O)(=O)C1(CC1)C2 | impressive potency |
| CCC[C@H](O)[C@H](NC[C@H](Cc1ccccc1)NC(=O)c1cc2c3c(c1)c(CC)cn3CC1(CC1)S(=O)(=O)N2C)C(=O)NCC(C)C | impressive potency |
